Biological target: recombinant human SYK (GST-hSYK fusion protein) (Homo sapiens)
Conditions: read-out: rhSYK Activity; Table 36A
RESULT TYPE: IC50

{"MOLECULE": "COC(=O)C1CCC(c2ncc(-c3cccc(Nc4nccc(C(F)(F)F)n4)c3)s2)CC1 (stereo not shown) [Example 36A-5]", "RESULT TYPE": "IC50", "OBSERVED MEASUREMENT": "100 to 1000 nM"}

* * *

Molecular target: recombinant human SYK (GST-hSYK fusion protein) (Homo sapiens, UniProt P43405)
Assay: biochemical
Details: rhSYK Activity, table after Example 75
IC50 for assorted compounds

{"COMPOUND": "COc1ccnc(Nc2cc(C)cc(-c3cnc(CS(N)(=O)=O)s3)c2)n1 [Example 75-2]", "IC50": "< 100 nM"}
{"COMPOUND": "NS(=O)(=O)Cc1ncc(-c2cccc(Nc3nccc(C(F)(F)F)n3)c2)s1 [Example 75-1]", "IC50": "< 100 nM"}
